tested on: HCV 1a-H77 subgenomic replicon; assay: microbe, parasite or virus in culture; type: cell-based, HCV genotype 1a; conditions: Hepatitis C virus, stable replicon, strain 1a H77, 5% FBS; read-out: 1a H77 5% FBS EC50
recorded_endpoint: EC50 (nM)

>>> reported_value("CS(=O)(=O)N(CCCF)c1cc2oc(-c3ccc(F)cc3)c(-c3ncc[nH]3)c2cc1C1CC1 [Example 85]")
21.8
>>> reported_value("CC(C)CCN(c1cn2nc(-c3ccc(F)cc3)c(-c3ncc[nH]3)c2cc1C1CC1)S(C)(=O)=O [Example 17]")
98.9
>>> reported_value("CCCC/C=C/c1ccc(-c2oc3cc(N(CCCCS(C)(=O)=O)S(C)(=O)=O)c(C4CC4)cc3c2-c2ncc[nH]2)cc1 [Example 168]")
1.8
>>> reported_value("CC(C)CCN(c1cc2oc(-c3ccc(F)cc3)c(C3=NOC(C)N3)c2cc1C1CC1)S(C)(=O)=O (stereo not shown) [Example 14]")
24.3

###

test system: HCV 1a-H77 transient subgenomic replicon in Huh-7 derived cell line; test: microbe, parasite or virus in culture; type: cell-based, HCV genotype 1a; details: Hepatitis C virus, Huh-7; transient replicon, 5% FBS; read-out: Transient Replicon 1a H77 5% FBS EC50
recorded_endpoint: EC50 (nM)

>>> reported_value("CS(=O)(=O)N(CCCCO)c1cc2oc(-c3ccc(F)cc3)c(C3=NOCN3)c2cc1C1CC1 [Example 16]")
2.6
>>> reported_value("CS(=O)(=O)N(CCCS(N)(=O)=O)c1cc2oc(-c3ccc(F)cc3)c(C3=NOCN3)c2cc1C1CC1 [Example 15]")
8.2
>>> reported_value("CC(C)(O)C(O)CCN(c1cc2oc(-c3ccc(F)cc3)c(C3=NOCN3)c2cc1C1CC1)S(C)(=O)=O (stereo not shown) [Example 146]")
11.2
>>> reported_value("CNS(=O)(=O)CCCN(c1cc2oc(-c3ccc(F)cc3)c(-c3ncc[nH]3)c2cc1C1CC1)S(C)(=O)=O [Example 86]")
2.8
>>> reported_value("CS(=O)(=O)N(CCCS(N)(=O)=O)c1cc2oc(-c3ccc(F)cc3)c(C3=NOCCN3)c2cc1C1CC1 [Example 124]")
33.4
>>> reported_value("CC(C)CCN(c1cc2oc(-c3ccc(F)cc3)c(C3=NOCCN3)c2cc1C1CC1)S(C)(=O)=O [Example 10]")
6
>>> reported_value("COc1ccc(CN(c2cc3oc(-c4ccc(F)cc4)c(C4=NOC(C)N4)c3cc2C2CC2)S(C)(=O)=O)cc1 (stereo not shown) [Example 151]")
33.2

###

system: HCV 1b-BB7 subgenomic replicon; assay: microbe, parasite or virus in culture; format: cell-based, HCV genotype 1b; settings: Hepatitis C virus, read-out: 1b BB7 5% FBS EC50
recorded_endpoint: EC50 (nM)

>>> reported_value("CS(=O)(=O)N(CCC1CCS(=O)(=O)C1)c1cc2oc(-c3ccc(F)cc3)c(-c3ncc[nH]3)c2cc1C1CC1 (stereo not shown)")
3

###

system: HCV 1a-H77 subgenomic replicon; assay: microbe, parasite or virus in culture; assay type: cell-based, HCV genotype 1a; conditions: Hepatitis C virus, stable replicon, strain 1a H77, 5% FBS; read-out: 1a H77 5% FBS EC50
pEC50: −log10 of the molar value.
Reported pEC50 values for a set of molecules
recorded_endpoint: pEC50

>>> reported_value("CS(=O)(=O)N(CCCc1noc(=O)[nH]1)c1cc2oc(-c3ccc(F)cc3)c(-c3ncc[nH]3)c2cc1C1CC1")
7.10
>>> reported_value("CCN(CC)CCCN(c1cc2oc(-c3ccc(F)cc3)c(C3=NOCCN3)c2cc1C1CC1)S(C)(=O)=O")
6.91
>>> reported_value("CS(=O)(=O)N(CCCS(=O)(=O)c1ccccc1)c1cc2oc(-c3ccc(F)cc3)c(-c3ncc[nH]3)c2cc1C1CC1")
7.99
>>> reported_value("CS(=O)(=O)N(CC(O)CO)c1cc2oc(-c3ccc(F)cc3)c(-c3ncc[nH]3)c2cc1C1CC1 (centres unmarked)")
7.08
>>> reported_value("CS(=O)(=O)N(CCC1CCS(=O)(=O)C1)c1cc2oc(-c3ccc(F)cc3)c(C3=NOCN3)c2cc1C1CC1 (centres unmarked)")
8.06
>>> reported_value("COc1ccc(CN(c2cc3oc(-c4ccc(F)cc4)c(C4=NOCN4)c3cc2C2CC2)S(C)(=O)=O)cc1")
6.87
>>> reported_value("CNC(=O)CCCN(c1cc2oc(-c3ccc(F)cc3)c(-c3ncc[nH]3)c2cc1C1CC1)S(C)(=O)=O")
7.76
>>> reported_value("CS(=O)(=O)CCCCN(c1cc2oc(-c3ccc(Nc4ccccc4)cc3)c(-c3ncc[nH]3)c2cc1C1CC1)S(C)(=O)=O")
8.67
>>> reported_value("CC(C)N(c1cc2oc(-c3ccc(F)cc3)c(-c3ncc[nH]3)c2cc1C1CC1)S(C)(=O)=O")
6.89
>>> reported_value("CS(=O)(=O)N(CC#N)c1cc2oc(-c3ccc(F)cc3)c(-c3ncc[nH]3)c2cc1C1CC1")
7.17
>>> reported_value("CCCCCCN(c1cc2oc(-c3ccc(F)cc3)c(-c3ncc[nH]3)c2cc1C1CC1)S(C)(=O)=O")
7.18
>>> reported_value("CC(C)(O)C(=O)CCN(c1cc2oc(-c3ccc(F)cc3)c(-c3ncc[nH]3)c2cc1C1CC1)S(C)(=O)=O")
7.26
>>> reported_value("CC(C)CCN(c1cc2oc(-c3ccc(F)cc3)c(C3=NOCCN3)c2cc1C1CC1)S(C)(=O)=O")
7.98
>>> reported_value("CS(=O)(=O)N(CCN1CCOCC1)c1cc2oc(-c3ccc(F)cc3)c(-c3ncc[nH]3)c2cc1C1CC1")
7.66

###

biological target: HCV NS5B polymerase 1a-H77 (Hepatitis C virus genotype 1a); construct: six-histidine tag; made in house; host or cells: E. coli; assay: biochemical; set-up: species or system HCV genotype 1a
Sequence (P27958 2421-2990): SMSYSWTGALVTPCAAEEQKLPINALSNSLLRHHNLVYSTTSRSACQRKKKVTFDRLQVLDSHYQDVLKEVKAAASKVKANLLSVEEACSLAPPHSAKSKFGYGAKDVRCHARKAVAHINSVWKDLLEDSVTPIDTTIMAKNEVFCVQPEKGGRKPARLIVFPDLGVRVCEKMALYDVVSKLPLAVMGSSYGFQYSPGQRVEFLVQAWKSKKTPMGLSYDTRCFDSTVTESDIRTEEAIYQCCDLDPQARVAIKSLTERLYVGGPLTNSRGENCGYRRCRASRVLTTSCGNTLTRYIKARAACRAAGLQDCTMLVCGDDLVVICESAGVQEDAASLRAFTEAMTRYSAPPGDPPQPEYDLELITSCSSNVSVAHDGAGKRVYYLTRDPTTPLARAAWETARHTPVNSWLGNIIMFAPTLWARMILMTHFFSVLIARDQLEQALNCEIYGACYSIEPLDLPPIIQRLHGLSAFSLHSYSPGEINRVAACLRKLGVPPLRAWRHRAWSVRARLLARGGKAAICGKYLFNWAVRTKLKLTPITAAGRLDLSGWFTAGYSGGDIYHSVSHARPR
pIC50: −log10 of the molar value.
recorded_endpoint: pIC50

>>> reported_value("CS(=O)(=O)N(Cc1cc(O)no1)c1cc2oc(-c3ccc(F)cc3)c(-c3ncc[nH]3)c2cc1C1CC1")
8.35
>>> reported_value("CS(=O)(=O)N(CCCS(N)(=O)=O)c1cc2oc(-c3ccc(F)cc3)c(C3=NOCN3)c2cc1C1CC1")
8.52
>>> reported_value("CS(=O)(=O)N(CCC1CCS(=O)(=O)C1)c1cc2oc(-c3ccc(F)cc3)c(-c3ncc[nH]3)c2cc1C1CC1 (stereo not drawn)")
8.05

###

tested on: HCV NS5B polymerase 1a-H77-C316Y; test: biochemical; set-up: species or system HCV genotype 1a; settings: ratio of enzyme IC50s, 1a H77-C316Y / 1a H77
Rule: C316Y/1a Fold Resistance below 20 fold gives Satisfied. Equal to or above 20 fold gives Not satisfied.

>>> answer_label("CCOC(=O)CCCCN(c1cc2oc(-c3ccc(F)cc3)c(-c3ncc[nH]3)c2cc1C1CC1)S(C)(=O)=O [Example 50]")
"Not satisfied"
>>> answer_label("CS(=O)(=O)N(CCC1CCS(=O)(=O)C1)c1cc2oc(-c3ccc(F)cc3)c(C3=NOCCN3)c2cc1C1CC1 (stereo not shown) [Example 123]")
"Satisfied"
>>> answer_label("CS(=O)(=O)N(CCCN1CCOCC1)c1cc2oc(-c3ccc(F)cc3)c(-c3ncc[nH]3)c2cc1C1CC1 [Example 60]")
"Satisfied"
>>> answer_label("CS(=O)(=O)N(CCCn1cccc1)c1cc2oc(-c3ccc(F)cc3)c(C3=NOCCN3)c2cc1C1CC1 [Example 119]")
"Satisfied"
>>> answer_label("CC1NC(c2c(-c3ccc(F)cc3)oc3cc(N(CC[S+](C)[O-])S(C)(=O)=O)c(C4CC4)cc23)=NO1 (stereo not shown) [Example 13]")
"Satisfied"
>>> answer_label("C=C(c1ccccc1)c1ccc(-c2oc3cc(N(CCC(C)C)S(C)(=O)=O)c(C4CC4)cc3c2-c2ncc[nH]2)cc1 [Example 167]")
"Not satisfied"
>>> answer_label("CS(=O)(=O)N(CCC(O)CO)c1cc2oc(-c3ccc(F)cc3)c(-c3ncc[nH]3)c2cc1C1CC1 (stereo not shown) [Example 110]")
"Satisfied"

###

target: HCV NS5B polymerase 1a-H77 (Hepatitis C virus genotype 1a); construct: six-histidine tag; made in house; host or cells: E. coli; experiment: biochemical; parameters: species or system HCV genotype 1a; conditions: enzyme, strain 1a H77; read-out: HCV Polymerase Strain 1a H77 IC50
pIC50: −log10 of the molar value.
# binarize pIC50: threshold 8 inclusive, high side condition met, low side condition not met

>>> answer_label("CS(=O)(=O)Nc1cc2oc(-c3ccc(F)cc3)c(-c3nc(Cl)c[nH]3)c2cc1C1CC1 [Example 164]")
"condition not met"
>>> answer_label("CC(C)CCN(c1cc2oc(-c3ccc(F)cc3)c(C3=NOCC(=O)N3)c2cc1C1CC1)S(C)(=O)=O [Example 162]")
"condition not met"
>>> answer_label("CS(=O)(=O)N(CCCCC(F)=C(F)F)c1cc2oc(-c3ccc(F)cc3)c(C3=NOCCN3)c2cc1C1CC1 [Example 120]")
"condition met"
>>> answer_label("CS(=O)(=O)N(CCCC(N)=O)c1cc2oc(-c3ccc(F)cc3)c(-c3ncc[nH]3)c2cc1C1CC1 [Example 108]")
"condition met"
>>> answer_label("CC(C)CCN(c1cc2oc(-c3ccc(Nc4ccccc4)cc3)c(-c3ncc[nH]3)c2cc1C1CC1)S(C)(=O)=O [Example 18]")
"condition not met"
>>> answer_label("CCC1NC(c2c(-c3ccc(F)cc3)oc3cc(N(CCC(C)C)S(C)(=O)=O)c(C4CC4)cc23)=NO1 (stereo not drawn) [Example 155]")
"condition not met"
